Test system: Oryza sativa
test.summary: Phytotoxicity to rice (direct-seeded and transplanted) in paddy condition, greenhouse pot test
Format: in vivo
applied.conditions: 80 g/ha; transplanted rice seedlings, treated 5 days after transplanting; visual rating after two weeks
A collection of molecules and their measured Phytotoxicity, Oryza sativa, Transplanted
test.readout: Phytotoxicity, Oryza sativa, Transplanted

molecule	value.observed
COCC(=O)O[C@H](c1nccc(Cl)c1S(=O)(=O)NC(=O)Nc1nc(OC)cc(OC)n1)[C@H](C)F	20%
COCCC(=O)O[C@H](c1ncccc1S(=O)(=O)NC(=O)Nc1nc(OC)cc(OC)n1)[C@H](C)F	20%
COc1cc(OC)nc(NC(=O)NS(=O)(=O)c2cccnc2[C@@H](OC(=O)CO)[C@H](C)F)n1	20%
COc1cc(OC)nc(NC(=O)NS(=O)(=O)c2cccnc2[C@@H](OC(=O)CCO)[C@H](C)F)n1	20%
COc1cc(OC)nc(NC(=O)NS(=O)(=O)c2ccccc2[C@@H](OC(C)=O)[C@H](C)F)n1 [Standard Compound B, reference compound]	60%
COc1cc(OC)nc(NC(=O)NS(=O)(=O)c2ccccc2[C@@H](O)[C@H](C)F)n1 [Standard Compound A, reference compound]	70%
COc1cc(OC)nc(NC(=O)NS(=O)(=O)c2cccnc2[C@@H](O)[C@H](C)F)n1 [Standard Compound C, reference compound]	50%
